- assayed.target: CDK1/cyclinB1 (Homo sapiens, UniProt P06493)
- Sequence (P06493 whole entry): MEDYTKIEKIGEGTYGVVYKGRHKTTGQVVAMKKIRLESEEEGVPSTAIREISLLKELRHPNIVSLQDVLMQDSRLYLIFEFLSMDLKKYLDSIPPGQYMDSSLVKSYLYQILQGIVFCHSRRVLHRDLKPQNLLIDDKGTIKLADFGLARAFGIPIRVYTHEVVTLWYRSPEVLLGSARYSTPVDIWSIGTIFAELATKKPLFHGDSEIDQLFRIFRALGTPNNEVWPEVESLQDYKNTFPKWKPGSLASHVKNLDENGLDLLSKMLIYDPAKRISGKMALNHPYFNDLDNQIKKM
- Sequence (P14635 whole entry partner): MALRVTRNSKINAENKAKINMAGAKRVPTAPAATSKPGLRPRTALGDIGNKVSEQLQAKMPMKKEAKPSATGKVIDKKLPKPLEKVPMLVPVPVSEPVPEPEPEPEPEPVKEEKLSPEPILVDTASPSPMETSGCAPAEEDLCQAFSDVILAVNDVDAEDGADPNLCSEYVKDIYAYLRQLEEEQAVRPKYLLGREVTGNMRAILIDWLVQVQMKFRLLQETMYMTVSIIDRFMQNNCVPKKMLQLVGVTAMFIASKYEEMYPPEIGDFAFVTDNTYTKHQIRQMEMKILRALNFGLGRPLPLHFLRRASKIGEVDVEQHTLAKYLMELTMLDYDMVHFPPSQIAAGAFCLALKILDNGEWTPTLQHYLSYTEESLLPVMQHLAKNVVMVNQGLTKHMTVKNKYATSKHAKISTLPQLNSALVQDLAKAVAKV
- experiment.description: Cyclin-dependent kinase activity assay (continuous ATP coupling assay), CDK1/cyclinB1
- run.conditions: CDK1/cyclinB1 10 nM, ATP 200 μM, Histone1 copeptide 100 μM, 15 min preincubation, pH 7.5, 1% DMSO
pIC50: −log10 of the molar value.
quantity.kind: pIC50

Recorded results for 3 compounds are shown here.
CNS(=O)(=O)c1ccc(Nc2ncc(C(F)(F)F)c(-n3cc(N4CCNCC4)cn3)n2)cc1
7.00 to 8.00
CNS(=O)(=O)c1ccc(Nc2ncc(C(F)(F)F)c(-n3cc(C4CCN(C)C4)cn3)n2)cc1 (single isomer, unassigned) [Example 96]
7.00 to 8.00
CNS(=O)(=O)c1ccc(Nc2ncc(C(F)(F)F)c(-n3cc([C@H]4C[C@H](O)C4)cn3)n2)cc1
≤ 7.00

Observed pIC50 on CDK1/cyclinB1 (Homo sapiens, UniProt P06493) for "CNS(=O)(=O)c1ccc(Nc2ncc(C(F)F)c(-n3cc(CC(C)(C)O)cn3)n2)cc1" , please. ≤ 7.00

Observed pIC50 on CDK1/cyclinB1 (Homo sapiens, UniProt P06493) for "[2H]C([2H])([2H])NS(=O)(=O)c1ccc(Nc2ncc(C(F)(F)F)c(-n3cccn3)n2)cc1" , please. ≤ 7.00

Observed pIC50 on CDK1/cyclinB1 (Homo sapiens, UniProt P06493) for "CC1(Nc2ncc(C(F)(F)F)c(-n3cccn3)n2)CCN(S(C)(=O)=O)CC1" , please. ≤ 7.00

Observed pIC50 on CDK1/cyclinB1 (Homo sapiens, UniProt P06493) for "O=S(=O)(NCCO)c1ccc(Nc2ncc(C(F)(F)F)c(-n3cccn3)n2)c(F)c1" , please. ≤ 7.00

Observed pIC50 on CDK1/cyclinB1 (Homo sapiens, UniProt P06493) for CC(O)Cc1cnn(-c2nc(NC3CCN(S(C)(=O)=O)CC3)ncc2C(F)(F)F)c1 (single isomer, unassigned) [Example 107] , please. 7.00 to 8.00

Observed pIC50 on CDK1/cyclinB1 (Homo sapiens, UniProt P06493) for CC(C)(O)Cc1cnn(-c2nc(N[C@@H]3CCOC[C@H]3O)ncc2C(F)(F)F)c1 (single isomer, unassigned) , please. ≤ 7.00

Observed pIC50 on CDK1/cyclinB1 (Homo sapiens, UniProt P06493) for "[2H]C([2H])([2H])NS(=O)(=O)c1ccc(Nc2ncc(C(F)(F)F)c(-n3cc(CCO)cn3)n2)cc1" , please. 7.00 to 8.00

Observed pIC50 on CDK1/cyclinB1 (Homo sapiens, UniProt P06493) for "CNS(=O)(=O)c1ccc(Nc2ncc(C(F)(F)F)c(-n3cc(C)cn3)n2)cc1" , please. ≤ 7.00

Observed pIC50 on CDK1/cyclinB1 (Homo sapiens, UniProt P06493) for "O=S(=O)(NCCOC1CC1)c1ccc(Nc2ncc(C(F)(F)F)c(-n3cccn3)n2)cc1" , please. ≤ 7.00
